Entry source: ChEMBL document CHEMBL1147927

Biological target: C-C chemokine receptor type 1 (Homo sapiens)
Sequence (P32246 whole entry): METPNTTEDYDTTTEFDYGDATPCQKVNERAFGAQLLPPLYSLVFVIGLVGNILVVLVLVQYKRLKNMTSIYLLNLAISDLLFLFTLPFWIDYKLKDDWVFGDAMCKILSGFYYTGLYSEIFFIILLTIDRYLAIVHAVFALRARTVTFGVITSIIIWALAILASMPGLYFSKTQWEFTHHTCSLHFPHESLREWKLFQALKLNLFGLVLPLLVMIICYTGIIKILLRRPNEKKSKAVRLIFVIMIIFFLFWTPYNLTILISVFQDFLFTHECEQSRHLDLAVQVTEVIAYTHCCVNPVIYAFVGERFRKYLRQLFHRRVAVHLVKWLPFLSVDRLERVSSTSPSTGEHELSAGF
pIC50: −log10 of the molar value.

[
  {
    "Item smiles": "C[C@@H]1CN(Cc2ccc(F)cc2)[C@@H](C)CN1C(=O)COc1ccc(Cl)cc1CS(=O)(=O)O",
    "Test system": "C-C chemokine receptor type 1 (Homo sapiens)",
    "pIC50": 7.64
  },
  {
    "Item smiles": "C[C@@H]1CN(Cc2ccc(F)cc2)[C@@H](C)CN1C(=O)COc1ccc(Cl)cc1C(=O)CCC(=O)O",
    "Test system": "C-C chemokine receptor type 1 (Homo sapiens)",
    "pIC50": 7.89
  },
  {
    "Item smiles": "C[C@@H]1CN(Cc2ccc(F)cc2)[C@@H](C)CN1C(=O)COc1ccc(Cl)cc1C(=O)NCCN",
    "Test system": "C-C chemokine receptor type 1 (Homo sapiens)",
    "pIC50": 7.52
  },
  {
    "Item smiles": "C[C@@H]1CN(Cc2ccc(F)cc2)CCN1C(=O)COc1ccc(Cl)cc1",
    "Test system": "C-C chemokine receptor type 1 (Homo sapiens)",
    "pIC50": 6.07
  },
  {
    "Item smiles": "C[C@@H]1CN(Cc2ccc(F)cc2)[C@@H](C)CN1C(=O)COc1ccc(Cl)cc1CC(=O)O",
    "Test system": "C-C chemokine receptor type 1 (Homo sapiens)",
    "pIC50": 7.42
  },
  {
    "Item smiles": "C[C@@H]1CN(Cc2ccc(F)cc2)[C@@H](C)CN1C(=O)COc1ccc(Cl)cc1NC(=O)NCCN",
    "Test system": "C-C chemokine receptor type 1 (Homo sapiens)",
    "pIC50": 8.10
  },
  {
    "Item smiles": "C[C@@H]1CN(Cc2ccc(F)cc2)[C@@H](C)CN1C(=O)COc1ccc(Cl)cc1C(=O)O",
    "Test system": "C-C chemokine receptor type 1 (Homo sapiens)",
    "pIC50": 7.23
  }
]
